- test details: total protein half-life in vivo (active degradation + dilution); higher = more stable protein
- condition details: wild type E. coli NCM3722; growth: N-lim chemostat; doubling time 12 h
Listing of recorded total protein half-life in vivo by entry.

| monomer sequence | total protein half-life in vivo |
| --- | --- |
| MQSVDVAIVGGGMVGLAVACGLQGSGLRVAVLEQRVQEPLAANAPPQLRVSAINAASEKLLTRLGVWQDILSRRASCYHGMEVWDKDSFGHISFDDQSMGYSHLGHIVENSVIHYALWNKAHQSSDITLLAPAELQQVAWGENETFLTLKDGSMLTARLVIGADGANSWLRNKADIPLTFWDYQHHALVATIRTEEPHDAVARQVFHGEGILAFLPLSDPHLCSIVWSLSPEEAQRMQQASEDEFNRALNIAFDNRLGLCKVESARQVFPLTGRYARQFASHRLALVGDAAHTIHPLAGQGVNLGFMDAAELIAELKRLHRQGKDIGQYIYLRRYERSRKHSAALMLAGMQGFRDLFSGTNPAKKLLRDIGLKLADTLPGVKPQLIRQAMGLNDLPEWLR | 7.19 h |
| MNVIRTEIEDVLILEPRVFGDDRGFFYESFNQSAFEHILGYPVSFVQDNHSRSSKNVLRGLHFQRGEYAQDKLVRCTHGAVFDVAVDIRPNSVSFGKWVGVLLSADNKQQLWIPKGFAHGFLVLSDIAEFQYKTTNYYHPESDCGICWNDERIAIDWPQTSGLILSPKDERLFTLDELIRLKLIA | 3.7 h |
